Tested on: nitrite production in human cartilage explants
experiment-description: Human cartilage explant assay (nitrite production after IL-1β)
Type: cell-based
setup-conditions: Homo sapiens; inhibition of nitrite production, IL-1β-stimulated explants
pIC50: −log10 of the molar value. Where a name gives a salt, the structure may show the parent alone.
Listed here are compounds together with their documented pIC50.

Fill blank: measured pIC50 of the compound N=C1CCCC[C@H](CCCC[C@@H](N)C(=O)O)N1 [Example V, Trihydrate Hydrochloride] is ____. > 5.00

Look at this compound and give its reported pIC50. N=C1CCCC[C@@H](CCCC[C@H](N)C(=O)O)N1 [Example W, Trihydrate Hydrochloride] < 4.52

I am curious: what pIC50 value has been reported for N=C1CCCC[C@H](CCCC[C@H](N)C(=O)O)N1 [Example Z, Trihydrate Hydrochloride] ? > 5.00
